Listed next: entries and their corresponding Kd.
Tested System: T1, biotinylated hTfR1 (Acro Bio p/n TFR-H82E5) (human, UniProt P02786 89-760, biotinylated; site not stated)
T1 construct: Bought reagent of the BLI assay
T1 sequence (P02786 89-760 limits assumed): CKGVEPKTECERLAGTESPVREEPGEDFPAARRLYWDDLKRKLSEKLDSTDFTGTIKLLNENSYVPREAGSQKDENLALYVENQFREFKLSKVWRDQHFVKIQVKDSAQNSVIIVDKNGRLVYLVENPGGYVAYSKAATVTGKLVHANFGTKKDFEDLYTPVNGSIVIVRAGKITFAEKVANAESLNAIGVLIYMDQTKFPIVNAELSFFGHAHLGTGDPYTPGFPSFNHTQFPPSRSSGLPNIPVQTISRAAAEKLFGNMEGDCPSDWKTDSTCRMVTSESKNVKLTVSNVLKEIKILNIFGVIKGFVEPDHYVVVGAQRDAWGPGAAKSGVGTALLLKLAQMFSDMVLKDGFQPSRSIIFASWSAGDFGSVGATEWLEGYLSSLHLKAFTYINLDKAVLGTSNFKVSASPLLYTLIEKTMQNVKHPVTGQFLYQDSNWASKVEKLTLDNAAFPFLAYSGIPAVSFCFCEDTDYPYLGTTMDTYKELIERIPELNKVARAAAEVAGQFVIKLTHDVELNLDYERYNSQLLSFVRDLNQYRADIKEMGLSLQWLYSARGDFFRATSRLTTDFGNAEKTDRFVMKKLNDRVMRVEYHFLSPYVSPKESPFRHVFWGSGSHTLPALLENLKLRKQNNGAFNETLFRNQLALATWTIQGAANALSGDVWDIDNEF
Assay: BLI, Octet RH16, biotinylated TfR1 on streptavidin sensor; Fab-siRNA conjugate
Express your answer in nM, writing the number without its unit.

Check out these entries, answers already filled in.
{"Binder": "Fab0061-siRNA conjugate (Fab, V domains shown, siRNA-linker on a reduced cysteine; chain and residue not stated, also called Fab0061 (BLI conjugate columns)) VH: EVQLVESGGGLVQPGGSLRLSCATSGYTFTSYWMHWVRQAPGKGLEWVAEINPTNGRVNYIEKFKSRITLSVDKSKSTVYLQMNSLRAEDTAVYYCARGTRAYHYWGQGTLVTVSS VL: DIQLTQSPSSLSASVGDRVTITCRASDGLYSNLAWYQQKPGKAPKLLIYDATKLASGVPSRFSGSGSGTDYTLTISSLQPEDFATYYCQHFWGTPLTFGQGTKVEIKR", "Measured Value": 1.9}
{"Binder": "Fab0002-siRNA conjugate (Fab, V domains shown, siRNA-linker on a reduced cysteine; chain and residue not stated, also called Fab0002 (BLI conjugate columns)) VH: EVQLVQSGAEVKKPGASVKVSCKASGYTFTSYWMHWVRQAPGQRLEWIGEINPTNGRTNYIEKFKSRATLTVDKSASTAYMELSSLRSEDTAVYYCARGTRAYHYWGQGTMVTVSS VL: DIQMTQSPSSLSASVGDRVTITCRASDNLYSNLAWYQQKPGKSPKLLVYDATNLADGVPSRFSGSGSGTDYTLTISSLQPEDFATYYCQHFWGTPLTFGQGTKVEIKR", "Measured Value": 16.7}
{"Binder": "Fab0066-siRNA conjugate (Fab, V domains shown, siRNA-linker on a reduced cysteine; chain and residue not stated, also called Fab0066 (BLI conjugate columns)) VH: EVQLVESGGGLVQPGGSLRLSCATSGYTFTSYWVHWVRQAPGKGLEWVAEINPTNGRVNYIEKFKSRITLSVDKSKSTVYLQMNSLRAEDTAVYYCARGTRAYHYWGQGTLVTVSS VL: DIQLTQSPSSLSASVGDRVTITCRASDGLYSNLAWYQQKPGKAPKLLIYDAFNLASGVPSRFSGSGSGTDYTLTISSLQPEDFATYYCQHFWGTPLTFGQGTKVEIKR", "Measured Value": 1.81}
{"Binder": "Fab0064-siRNA conjugate (Fab, V domains shown, siRNA-linker on a reduced cysteine; chain and residue not stated, also called Fab0064 (BLI conjugate columns)) VH: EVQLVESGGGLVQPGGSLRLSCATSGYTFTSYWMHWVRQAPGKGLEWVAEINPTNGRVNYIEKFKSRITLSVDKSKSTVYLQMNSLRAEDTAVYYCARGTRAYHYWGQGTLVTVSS VL: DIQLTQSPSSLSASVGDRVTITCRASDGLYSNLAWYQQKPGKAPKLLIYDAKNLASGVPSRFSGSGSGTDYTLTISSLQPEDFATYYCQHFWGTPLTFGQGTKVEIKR", "Measured Value": 1.44}

GET /value?item= Fab0067-siRNA conjugate (Fab, V domains shown, siRNA-linker on a reduced cysteine; chain and residue not stated, also called Fab0067 (BLI conjugate columns)) VH: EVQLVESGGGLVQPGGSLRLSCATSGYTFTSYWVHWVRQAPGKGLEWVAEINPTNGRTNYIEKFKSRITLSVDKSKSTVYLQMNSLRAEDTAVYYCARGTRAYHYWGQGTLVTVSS VL: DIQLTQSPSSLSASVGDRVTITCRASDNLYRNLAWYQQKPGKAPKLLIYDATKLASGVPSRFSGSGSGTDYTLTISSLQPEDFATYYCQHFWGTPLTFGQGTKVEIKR &field=Kd returns 0.623

Taken from patent US20260191981A1.
